Method description: Preliminary solubility experiments in methanol
Type: physicochemical
Outcome measure: S = mg/100 mL (preliminary solubility in methanol)

compound=CCCCCCCCCCCCCCC[C@H](O)[C@@H](N)CO data_value=">87 mg/100 mL"
compound=C=CCNC1=C2C[C@@H](C)C[C@H](OC)[C@H](O)[C@@H](C)/C=C(\C)[C@H](OC(N)=O)[C@@H](OC)/C=C\C=C(/C)C(=O)NC(=CC1=O)C2=O data_value=">220 mg/100 mL"
compound="CC1=C(/C=C/C(C)=C/C=C/C(C)=C/C(=O)Nc2ccc(O)cc2)C(C)(C)CCC1 [Sample 2, Fenretinide (4HPR)]" data_value=">163 mg/100 mL"

stdin: Let me know recorded S = mg/100 mL (preliminary solubility in methanol) for Cc1c(F)c(N)c2c(=O)cc(-c3ccc(N)c(F)c3)oc2c1F , thanks.
stdout: 48 mg/100 mL
